- test-details: Solubility in water
- Type: physicochemical
- condition-info: at 20°C

molecule: O=C(CO)Nc1c(I)c(C(=O)NCC(O)CNC(=O)c2c(I)c(NC(=O)CO)c(I)c(C(=O)NC(CO)C(O)CO)c2I)c(I)c(C(=O)NC(CO)C(O)CO)c1I (stereo not shown) [Example 15]
inequality-symbol: =
Solubility in H₂O, % w/v: 100
--
molecule: C[C@H](O)C(=O)Nc1c(I)c(C(=O)NCC(O)CO)c(I)c(C(=O)N(C)CC(O)CN(C)C(=O)c2c(I)c(NC(=O)[C@H](C)O)c(I)c(C(=O)NCC(O)CO)c2I)c1I (stereo partly shown) [Example 8]
inequality-symbol: >
Solubility in H₂O, % w/v: 100
--
molecule: CN(CC(O)CN(C)C(=O)c1c(I)c(NC(=O)CO)c(I)c(C(=O)NC(CO)C(O)CO)c1I)C(=O)c1c(I)c(NC(=O)CO)c(I)c(C(=O)NC(CO)C(O)CO)c1I (stereo not shown) [Example 16]
inequality-symbol: =
Solubility in H₂O, % w/v: 100
--
molecule: C[C@H](O)C(=O)Nc1c(I)c(C(=O)NCC(O)CNC(=O)c2c(I)c(NC(=O)[C@H](C)O)c(I)c(C(=O)NC(CO)C(O)CO)c2I)c(I)c(C(=O)NC(CO)C(O)CO)c1I (stereo partly shown) [Example 4]
inequality-symbol: =
Solubility in H₂O, % w/v: 100
